This collection of values is drawn from ChEMBL document CHEMBL3351663.

Target: Glucocorticoid receptor (Homo sapiens)
Sequence (P04150 whole entry): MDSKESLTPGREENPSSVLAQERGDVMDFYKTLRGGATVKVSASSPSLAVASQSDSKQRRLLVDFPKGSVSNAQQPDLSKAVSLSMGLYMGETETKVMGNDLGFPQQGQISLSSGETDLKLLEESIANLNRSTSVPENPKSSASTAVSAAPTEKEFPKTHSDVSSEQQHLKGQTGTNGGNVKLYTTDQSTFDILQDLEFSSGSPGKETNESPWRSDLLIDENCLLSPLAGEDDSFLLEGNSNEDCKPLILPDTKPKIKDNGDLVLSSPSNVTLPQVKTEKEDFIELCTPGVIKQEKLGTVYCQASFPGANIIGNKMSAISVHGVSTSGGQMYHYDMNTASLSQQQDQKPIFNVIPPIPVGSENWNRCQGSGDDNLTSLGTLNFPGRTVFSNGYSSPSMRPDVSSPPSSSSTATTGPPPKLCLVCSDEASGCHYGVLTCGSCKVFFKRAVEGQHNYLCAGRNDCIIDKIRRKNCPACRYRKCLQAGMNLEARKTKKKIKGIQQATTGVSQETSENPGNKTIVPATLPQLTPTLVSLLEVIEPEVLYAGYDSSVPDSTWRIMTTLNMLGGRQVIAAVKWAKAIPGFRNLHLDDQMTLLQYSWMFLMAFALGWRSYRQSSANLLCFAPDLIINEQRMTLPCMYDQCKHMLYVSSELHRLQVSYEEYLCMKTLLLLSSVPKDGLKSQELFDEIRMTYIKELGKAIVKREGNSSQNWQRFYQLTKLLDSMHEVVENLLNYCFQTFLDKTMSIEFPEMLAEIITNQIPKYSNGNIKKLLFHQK
Assay: Agonist activity at glucocorticoid receptor in human HeLa cells assessed as NP-1 transactivation by luciferase reporter gene assay
Assay type: cell-based
pEC50: −log10 of the molar value.
PROPERTY MEASURED: pEC50

• CC(C)(O)c1ccc(-c2ccc3c(n2)Oc2c(F)cccc2[C@@H]3C(C)(C)C(=O)NC(N)=O)cn1 = 6.97

[A] CC(C)Oc1ccc(-c2ccc3c(n2)Oc2c(F)cccc2[C@@H]3C(C)(C)C(=O)NC(N)=O)cn1
[B] CC(C)(C(=O)NC(N)=O)[C@@H]1c2ccc(-c3ccc(C(=O)N4CC[C@H](F)C4)cc3)nc2Oc2c(F)cccc21
[C] CN(C)C(=O)NC(=O)C(C)(C)[C@@H]1c2ccc(-c3ccc(C(=O)N4CCOCC4)cc3)nc2Oc2c(F)cccc21
INPUT: Reorder: pEC50, max to min. Returns: the labels listed in the requested order.
OUTPUT: B, A, C
